# procedureText: Metabolic stability in cryopreserved human hepatocytes
# Type: in vitro ADME
# measurementSetup: human, cryopreserved human hepatocytes (pooled, suspension), Table 1; incubation in cryopreserved human hepatocytes, 1 μM, up to 240 min; read-out: t1/2
endpointLabel: half-life at 1 µM (min)
Write it as a number; the unit min goes unstated.

stdin: Sample Cc1ncsc1-c1ccc([C@H](C)NC(=O)[C@@H]2C[C@@H](O)CN2C(=O)[C@@H](N)C(C)(C)C)cc1 [Compound 42, reference compound] — what was its half-life at 1 µM?
stdout: 92

stdin: Query: half-life at 1 µM; subject: Oc1c(-c2csc(N3CCOCC3)n2)ccc(F)c1F [Compound 46, reference compound]
stdout: 18.3

stdin: May I ask what half-life at 1 µM has been recorded for Cc1sc2c(c1C)C(c1ccc(Cl)cc1)=N[C@@H](CC(=O)NCCCCCCCCNc1cccc3c1C(=O)N(C1CCC(=O)NC1=O)C3=O)c1nnc(C)n1-2 (some centres unmarked) ?
stdout: 55.1

stdin: Requested field: half-life at 1 µM. Item: Cc1ncsc1-c1ccc([C@H](C)NC(=O)[C@@H]2C[C@@H](O)CN2C(=O)[C@@H](NC(=O)COCCOCCNC(=O)COc2c(-c3csc(N4CCOCC4)n3)ccc(F)c2F)C(C)(C)C)cc1
stdout: 37.6

stdin: Recorded half-life at 1 µM for Nc1cccc2c1C(=O)N(C1CCC(=O)NC1=O)C2=O (centres unmarked) [Compound 41, pomalidomide, reference compound] , please?
stdout: 140

----------
# targetOfAssay: CYP3A4 (Homo sapiens, UniProt P08684)
# Sequence (P08684 whole entry): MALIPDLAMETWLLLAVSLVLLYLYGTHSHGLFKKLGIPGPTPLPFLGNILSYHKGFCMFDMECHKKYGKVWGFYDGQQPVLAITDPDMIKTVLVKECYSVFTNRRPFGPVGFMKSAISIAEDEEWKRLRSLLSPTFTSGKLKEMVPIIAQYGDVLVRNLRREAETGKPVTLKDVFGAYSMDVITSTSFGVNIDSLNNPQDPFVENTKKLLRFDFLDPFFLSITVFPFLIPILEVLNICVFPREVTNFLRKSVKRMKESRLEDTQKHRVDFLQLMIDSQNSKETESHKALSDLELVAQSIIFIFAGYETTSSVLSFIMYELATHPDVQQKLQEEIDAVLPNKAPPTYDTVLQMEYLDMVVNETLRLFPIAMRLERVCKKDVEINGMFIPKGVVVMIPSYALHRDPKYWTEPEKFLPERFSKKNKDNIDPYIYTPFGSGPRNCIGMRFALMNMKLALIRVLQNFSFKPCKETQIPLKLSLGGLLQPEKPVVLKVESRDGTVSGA
# procedureText: in vitro
# measurementSetup: pH 7.4
endpointLabel: half-life at 1 µM (min)
Return type: number; implicit unit min.

stdin: Need half-life at 1 µM of Cc1ncsc1-c1ccc([C@H](CC(=O)NCCCCCCNC(=O)COc2c(-c3csc(N4CCOCC4)n3)ccc(F)c2F)NC(=O)[C@@H]2C[C@@H](O)CN2C(=O)[C@@H](NC(=O)C2(F)CC2)C(C)(C)C)cc1 [Compound 40] , thanks.
stdout: 22.6

stdin: Look up half-life at 1 µM: Cc1sc2c(c1C)C(c1ccc(Cl)cc1)=N[C@@H](CC(=O)NCCOCCOCCNc1cccc3c1C(=O)N(C1CCC(=O)NC1=O)C3=O)c1nnc(C)n1-2 (stereo partly shown) [Compound 5]
stdout: 1.1

stdin: Reported half-life at 1 µM for Cc1ncsc1-c1ccc([C@H](C)NC(=O)[C@@H]2C[C@@H](O)CN2C(=O)[C@@H](NC(=O)CCCCCCNC(=O)COc2c(-c3csc(N4CCOCC4)n3)ccc(F)c2F)C(C)(C)C)cc1 [Compound 35] : what is it?
stdout: 1.7

stdin: GET /values?readout=half-life at 1 µM&item= O=C(COc1c(-c2csc(N3CCOCC3)n2)ccc(F)c1F)NCCCCCCNc1cccc2c1C(=O)N(C1CCC(=O)NC1=O)C2=O (stereo not shown) [Compound 29]
stdout: 7.4

----------
Would you kindly list half-life at 1 µM for each of these compounds?
# procedureText: Metabolic stability in cryopreserved human hepatocytes
# Format: in vitro ADME
# measurementSetup: human, cryopreserved human hepatocytes (pooled, suspension), Table S1; PROTACs, cryopreserved human hepatocytes; read-out: t1/2
A bare number is not enough; add the unit after it.

stdin: Entry Cc1ncsc1-c1ccc([C@H](C)NC(=O)[C@@H]2C[C@@H](O)CN2C(=O)[C@@H](NC(=O)CCCCCCNC(=O)C[C@@H]2N=C(c3ccc(Cl)cc3)c3c(sc(C)c3C)-n3c(C)nnc32)C(C)(C)C)cc1 [Compound 8] : reported half-life at 1 µM = ?
stdout: 1.36 h

stdin: Given the entry Cc1sc2c(c1C)C(c1ccc(Cl)cc1)=N[C@@H](CC(=O)NCCCCCCCCNc1cccc3c1C(=O)N(C1CCC(=O)NC1=O)C3=O)c1nnc(C)n1-2 (some centres unmarked) [Compound 4] , report its measured half-life at 1 µM.
stdout: 0.918 h

stdin: Param item = Cc1sc2c(c1C)C(c1ccc(Cl)cc1)=N[C@@H](CC(=O)NCCCN1CCN(CCCNc3cccc4c3C(=O)N(C3CCC(=O)NC3=O)C4=O)CC1)c1nnc(C)n1-2 (some centres unmarked) [Compound 6] ; retrieve measured half-life at 1 µM.
stdout: 1.45 h

stdin: Would you mind telling me what half-life at 1 µM value was observed for Cc1ncsc1-c1ccc([C@H](C)NC(=O)[C@@H]2C[C@@H](O)CN2C(=O)[C@@H](NC(=O)CCCCCCNC(=O)COc2c(-c3csc(N4CCOCC4)n3)ccc(F)c2F)C(C)(C)C)cc1 [Compound 35] ?
stdout: 0.417 h

stdin: So what does the record say about half-life at 1 µM for Cc1ncsc1-c1ccc([C@H](C)NC(=O)[C@@H]2C[C@@H](O)CN2C(=O)[C@@H](NC(=O)CCCCCCNC(=O)c2ccc3c(c2)nc(Nc2cccc(Cl)c2)c2ccncc23)C(C)(C)C)cc1 [Compound 18] ?
stdout: 3.48 h

----------
# procedureText: Metabolic stability in cryopreserved human hepatocytes
# Type: in vitro ADME
# measurementSetup: human, cryopreserved human hepatocytes (pooled, suspension), supplement CSV; human hepatocytes; read-out: HLH t1/2
Rule: half-life at 1 µM of 50 min or more gives Criterion met; anything lower gives Criterion not met.

stdin: Does half-life at 1 µM meet or surpass 50 min for Cc1ncsc1-c1ccc([C@H](C)NC(=O)[C@@H]2C[C@@H](O)CN2C(=O)[C@@H](NC(=O)CCCCCCC(=O)N2CCN(C(=O)c3cc(Cc4n[nH]c(=O)c5ccccc45)ccc3F)CC2)C(C)(C)C)cc1 [Compound 23] ?
stdout: Criterion met

stdin: // inclusive: half-life at 1 µM at least 50 min? input: Cc1sc2c(c1C)C(c1ccc(Cl)cc1)=N[C@@H](CC(=O)Nc1ccc(OCCOCCOCCOCCNc3cccc4c3C(=O)N(C3CCC(=O)NC3=O)C4=O)cc1)c1nnc(C)n1-2 (stereo partly shown) [Compound 3, ARV-825, reference compound]
stdout: Criterion not met

stdin: Reported half-life at 1 µM at or above 50 min? O=C(COc1cccc2c1C(=O)N(C1CCC(=O)NC1=O)C2=O)NCCOCCOCCOCCNC(=O)c1ccc2c(c1)nc(Nc1cccc(Cl)c1)c1ccncc12 (stereo not shown) [Compound 14]
stdout: Criterion met

stdin: Decide: half-life at 1 µM of O=C1CCC(N2C(=O)c3cccc(NCCCCCCNC(=O)c4ccc5c(c4)nc(Nc4cccc(Cl)c4)c4ccncc45)c3C2=O)C(=O)N1 (stereo not shown) [Compound 16] >= 50 min?
stdout: Criterion not met

stdin: Please check the record O=C(COc1cccc2c1C(=O)N(C1CCC(=O)NC1=O)C2=O)NCCCCCCCCCCNC(=O)c1ccc2c(c1)nc(Nc1cccc(Cl)c1)c1ccncc12 (stereo not shown) [Compound 13] and state if its half-life at 1 µM is at or above 50 min.
stdout: Criterion not met

stdin: Threshold query (half-life at 1 µM >= 50 min) on Oc1c(-c2csc(N3CCOCC3)n2)ccc(F)c1F [Compound 46, reference compound]
stdout: Criterion not met

stdin: Is half-life at 1 µM for Cc1ncsc1-c1ccc([C@H](C)NC(=O)[C@@H]2C[C@@H](O)CN2C(=O)[C@@H](NC(=O)COCCCNC(=O)COc2c(-c3csc(N4CCOCC4)n3)ccc(F)c2F)C(C)(C)C)cc1 [Compound 36] at or above 50 min?
stdout: Criterion not met

stdin: Exam item: decide whether the reported half-life at 1 µM for Cc1sc2c(c1C)C(c1ccc(Cl)cc1)=N[C@@H](CC(=O)NCCCCNC(=O)COc1cccc3c1C(=O)N(C1CCC(=O)NC1=O)C3=O)c1nnc(C)n1-2 (stereo partly shown) [Compound 1, dBet1] is at least 50 min.
stdout: Criterion met

stdin: Assess whether reported half-life at 1 µM for O=C(COc1c(-c2csc(N3CCOCC3)n2)ccc(F)c1F)NCCCCCCNc1cccc2c1C(=O)N(C1CCC(=O)NC1=O)C2=O (stereo not shown) [Compound 29] sits at 50 min or higher.
stdout: Criterion met

stdin: # bool: half-life at 1 µM of Cc1ncsc1-c1ccc([C@H](C)NC(=O)[C@@H]2C[C@@H](O)CN2C(=O)[C@@H](NC(=O)COCCOCCNC(=O)C[C@@H]2N=C(c3ccc(Cl)cc3)c3c(sc(C)c3C)-n3c(C)nnc32)C(C)(C)C)cc1 [Compound 9] >= 50 min
stdout: Criterion met

stdin: Entry O=C1CCC(N2C(=O)c3cccc(NCCCCCCCCCCC(=O)N4CCN(C(=O)c5cc(Cc6n[nH]c(=O)c7ccccc67)ccc5F)CC4)c3C2=O)C(=O)N1 (stereo not shown) [Compound 21] : is its half-life at 1 µM no less than 50 min?
stdout: Criterion not met

stdin: API: above_or_equal(metric=half-life at 1 µM, cutoff=50 min) for item Cc1ncsc1-c1ccc([C@H](C)NC(=O)[C@@H]2C[C@@H](O)CN2C(=O)[C@@H](NC(=O)CCCCN(C)C(=O)COc2c(-c3csc(N4CCOCC4)n3)ccc(F)c2F)C(C)(C)C)cc1 [Compound 34]
stdout: Criterion met
